# credit: patent US4691024A

solubility: recorded values
test: Solubility in 0.03M phosphate buffered solution; assay type: physicochemical; conditions: 0.03m phosphate buffer, aqueous buffer, pH 7.0, 23° C.

Input line: Give a short answer stating reported solubility for CO[C@@]12[C@H](COC(N)=O)C3=C(C(=O)C(C)=C(NCCSSC[C@H](N)C(=O)O)C3=O)N1C[C@@H]1N[C@@H]12 [Compound 14] .
Output line: > 100 mg/mL

Others:
Input line: Give a short answer stating reported solubility for CO[C@@]12[C@H](COC(N)=O)C3=C(C(=O)C(C)=C(NCCSSC[C@H](N)C(=O)NCC(=O)O)C3=O)N1C[C@@H]1N[C@@H]12 [Compound 20] .
Output line: > 100 mg/mL

Input line: Give a short answer stating reported solubility for CO[C@@]12[C@H](COC(N)=O)C3=C(C(=O)C(C)=C(NCCSSc4ccc(NC(C)=O)cc4)C3=O)N1C[C@@H]1N[C@@H]12 [Compound 5] .
Output line: 0.052 mg/mL

###

assay: Acute toxicity in mice (LD50, Behrens Kerber's method); conditions: mouse, in vivo, ip; ddy mice, single intraperitoneal administration, 14 days observation
Each entry falls into one class according to its LD50 at 336 h; the ranges are LOW (below 9 mg/kg), MEDIUM (9 mg/kg to below 30 mg/kg), HIGH (30 mg/kg or more)

Input line: Just checking, what class would you give CC1=C(NCCSSC[C@H](N)C(=O)NCC(=O)O)C(=O)C2=C(C1=O)N1C[C@H]3[C@H](N3C)[C@]1(O)[C@H]2COC(N)=O (stereo partly shown) [Compound 21] here?
Output line: HIGH

Input line: Just checking, what class would you give CC(=O)Nc1ccc(SSCCNC2=C(C)C(=O)C3=C(C2=O)[C@H](COC(N)=O)[C@@]2(O)[C@@H]4[C@H](CN32)N4C)cc1 (stereo partly shown) [Compound 7] here?
Output line: HIGH

Input line: Just checking, what class would you give CC1=C(NCCSSC[C@H](N)C(=O)O)C(=O)C2=C(C1=O)N1C[C@H]3[C@H](N3C)[C@]1(O)[C@H]2COC(N)=O (stereo partly shown) [Compound 15] here?
Output line: HIGH

Input line: Just checking, what class would you give CO[C@@]12[C@H](COC(N)=O)C3=C(C(=O)C(C)=C(NCCSSc4ccc(F)cc4)C3=O)N1C[C@@H]1N[C@@H]12 [Compound 12] here?
Output line: LOW

Input line: Just checking, what class would you give CO[C@@]12[C@H](COC(N)=O)C3=C(C(=O)C(C)=C(NCCSSC(C)(C)[C@@H](N)C(=O)O)C3=O)N1C[C@@H]1N[C@@H]12 [Compound 28] here?
Output line: MEDIUM

Input line: Just checking, what class would you give CO[C@@]12[C@H](COC(N)=O)C3=C(C(=O)C(C)=C(NCCSSC[C@H](N)C(=O)NCC(=O)O)C3=O)N1C[C@@H]1N[C@@H]12 [Compound 20] here?
Output line: MEDIUM

Input line: Just checking, what class would you give CO[C@@]12[C@H](COC(N)=O)C3=C(C(=O)C(C)=C(NCCSSc4cccc(N)c4)C3=O)N1C[C@@H]1N[C@@H]12 [Compound 3] here?
Output line: LOW

Input line: Just checking, what class would you give COc1ccc(SSCCNC2=C(C)C(=O)C3=C(C2=O)[C@@H](COC(N)=O)[C@@]2(OC)[C@H]4N[C@H]4CN32)cc1 [Compound 9] here?
Output line: LOW
